Taken from ChEMBL document CHEMBL1201862.

- System: UO-31
- assayProcedure: NCI tumour cell line growth inhibition, 48 h
Calls of active or inactive are those of the source. No stated cut-off is given here; in the data, active = GI50 up to about 1.1 µM and inactive = higher.
measuredQuantity: GI50

O=[N+]([O-])/C=C/c1cn(CCCCCCCCCCCCn2cc(/C=C/[N+](=O)[O-])c3ccccc32)c2ccccc12	> 100 µM (inactive)
COc1ccc2[nH]c3c(C)c4c(c(C)c3c2c1)CN(C)CC4	16.4 µM (inactive)
CO/N=C1/c2sccc2[C@H](NC(=O)C(Cc2ccccc2)NC(=O)OC(C)(C)C)[C@@H]1O (stereo not given in full)	51.4 µM (inactive)
CC(=O)N1C(=O)/C(=C\C(=O)c2ccc(Cl)cc2)c2ccccc21	15.4 µM (inactive)
Cc1ccc(C)c(NC(=O)CC2C(=O)Nc3ccccc3S2(=O)=O)c1 (stereo not given)	49.7 µM (inactive)
COCc1c(CO)cnc(C)c1OC1OC(CO)C(O)C(O)C1O (stereo not given)	> 100 µM (inactive)
COc1ccccc1N(CN1C(=O)CCC1C(=O)O)C(C)=O (stereo not given)	> 100 µM (inactive)
CC(C)(CO)NC(=O)c1cccc(C(=O)NC(C)(C)CO)c1Br	> 100 µM (inactive)

Query block: Suppose we examine the molecule `CC1=C[C@H](C[C@]2(C)c3c(c4c(C)cccc4oc3=O)O[C@@H]2C)OC1=O` ; what GI50 value has been reported?
Result block: 32.5 µM (inactive)

Query block: // query GI50 value for entry `COc1cc(O)c(Cc2ccccc2O)c(O)c1C(=O)CCc1ccccc1`
Result block: 6.21 µM (inactive)

* * *

- Tested on: NCI-H226
- assayProcedure: NCI tumour cell line growth inhibition, 48 h
Active and inactive are the calls of the source. Rule as the data show it: active = GI50 up to about 1.1 µM and inactive = higher.
Outcome field: choose from class 1 = active, class 0 = inactive

Field: example entries. Status: answers known.
O=C1CC(c2ccccc2)C2(C(=O)NC(=S)NC2=O)C(c2ccccc2)C1 (stereo not drawn)	class 0
Cc1cc(/N=N/c2c(O)ccc3ccccc23)ccc1/N=N/c1cccc([N+](C)(C)C)c1	class 0
COCn1cnc2c(=O)nc(SC)n(-c3ccccc3)c21	class 0
Nc1cccc2nsnc12	class 0
C=CCn1c(=O)c2ccccc2[n+]2c(C)c(C(=O)OCC)sc12	class 0
CCCCC(=O)NC1(c2cc3ccccc3s2)CCCCC1	class 0
CCCCN(CCCC)C(=O)C(=O)C(C(=O)C(=O)OC)c1nc2ccccc2o1 (stereo not drawn)	class 0
Cc1nc2[nH]ccn2c(=O)c1CCO	class 0

Query block: Kindly provide the recorded test outcome for the following compound: `C/N=C(\NC(=S)N(C)C)N(C)C`
Result block: class 0

Query block: What is the recorded call for this compound in the test? Nc1nc(O)c2[nH]nnc2n1 [8-AZAGUANINE]
Result block: class 1

Query block: Name the outcome recorded for `CCN(C(C)=O)c1cnc(/C=N/NC(N)=S)c2ccccc12` in the assay.
Result block: class 0

Query block: Assay result, entry `CCCNCC(=O)O[C@]1(CC)C(=O)OCc2c1cc1n(c2=O)Cc2cc3ccccc3nc2-1` — outcome?
Result block: class 1

Query block: What did this assay record as the result for `CN(C)c1nc(N(C)C)n2nc(-c3ccccc3[N+](=O)[O-])nc2n1` ?
Result block: class 0

Query block: Please state the recorded outcome for this compound: `CN1C2=C(CC3=C1CC(C)(C)CC3=O)C(=O)CC(C)(C)C2`
Result block: class 0

Query block: Dear colleague, could you share the recorded outcome for N#CC(NCCc1ccccc1)c1ccc(C(C#N)NCCc2ccccc2)cc1 (stereo not drawn) when you have a moment?
Result block: class 0
